molecular target: UniProt:Q07969; test: Displacement of photoactivatable [125I]-Tyr-Bpa-Ala-Hexarelin from CD36 in Sprague-Dawley rat cardiac membranes incubated for 60 mins by densitometry
Starred links: 1 amine or outer side, 2 acyl side, 3 side chain; linkers in the order of their positions; H or OH if unused. Non-standard residues stand in square brackets, D forms with d. Residues, ends and D or L forms follow the SMILES beside them. azaTyr = O=C(N(Cc1ccc(O)cc1)N[*:1])[*:2]; X1 = O=C(N(CCc1ccccc1)N[*:1])[*:2]; azaLeu = CC(C)CN(N[*:1])C(=O)[*:2]
Reported IC50 values for a set of molecules

# molecule, tested on, IC50
records = [
    ("CC(C)CN(NC(=O)[C@@H](Cc1c[nH]c2ccccc12)NC(=O)[C@@H]1CCCN1)C(=O)N[C@@H](Cc1c[nH]c2ccccc12)C(=O)N[C@H](Cc1ccccc1)C(=O)N[C@@H](CCCCN)C(N)=O", "UniProt:Q07969", "7.97 µM"),
    ("C[C@H](NC(=O)[C@@H](Cc1c[nH]c2ccccc12)NC(=O)[C@@H](N)Cc1cnc[nH]1)C(=O)NN(CCc1ccccc1)C(=O)N[C@H](Cc1ccccc1)C(=O)N[C@@H](CCCCN)C(N)=O (H-H[dW]A[X1][dF]K-NH2)", "UniProt:Q07969", "> 10 µM"),
    ("CC(C)CN(NC(=O)[C@@H](C)NC(=O)[C@@H](N)Cc1cnc[nH]1)C(=O)N[C@@H](Cc1c[nH]c2ccccc12)C(=O)N[C@H](Cc1ccccc1)C(=O)N[C@@H](CCCCN)C(N)=O (H-H[dA][azaLeu]W[dF]K-NH2)", "UniProt:Q07969", "> 10 µM"),
]

-- ask Kindly indicate its recorded IC50. Item: C[C@H](N)C(=O)NN(Cc1ccc(O)cc1)C(=O)N[C@@H](C)C(=O)N[C@@H](Cc1c[nH]c2ccccc12)C(=O)N[C@H](Cc1ccccc1)C(=O)N[C@@H](CCCCN)C(N)=O (H-A[azaTyr]AW[dF]K-NH2)
-- reply 36.9 µM

-- ask Kindly indicate its recorded IC50. Item: `CCC(=O)N[C@H](Cc1c[nH]c2ccccc12)C(=O)NN(CC(C)C)C(=O)N[C@@H](Cc1c[nH]c2ccccc12)C(=O)N[C@H](Cc1ccccc1)C(=O)N[C@@H](CCCCN)C(N)=O`
-- reply > 10 µM

---

target: Platelet glycoprotein 4 (Rattus norvegicus); assay: Displacement of photoactivatable [125I]-Tyr-Bpa-Ala-Hexarelin from CD36 in Sprague-Dawley rat cardiac membranes incubated for 60 mins by densitometry
Sequence (Q07969 whole entry): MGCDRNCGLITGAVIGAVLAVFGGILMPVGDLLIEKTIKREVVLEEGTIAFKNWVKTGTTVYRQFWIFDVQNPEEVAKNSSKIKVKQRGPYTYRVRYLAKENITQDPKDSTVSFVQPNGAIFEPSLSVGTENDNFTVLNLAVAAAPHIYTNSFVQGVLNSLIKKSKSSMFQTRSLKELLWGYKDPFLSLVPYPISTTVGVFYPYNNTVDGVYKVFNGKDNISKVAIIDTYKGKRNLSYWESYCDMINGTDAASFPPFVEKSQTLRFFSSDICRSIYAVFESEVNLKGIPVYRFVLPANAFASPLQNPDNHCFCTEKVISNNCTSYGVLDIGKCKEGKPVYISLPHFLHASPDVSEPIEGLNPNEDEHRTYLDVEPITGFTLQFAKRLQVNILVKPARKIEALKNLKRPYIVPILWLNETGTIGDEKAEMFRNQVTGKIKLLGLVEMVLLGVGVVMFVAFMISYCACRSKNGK
Starred links: 1 amine or outer side, 2 acyl side, 3 side chain; linkers in the order of their positions; H or OH if unused. Non-standard residues stand in square brackets, D forms with d. Residues, ends and D or L forms follow the SMILES beside them. azaPhe = O=C(N(Cc1ccccc1)N[*:1])[*:2]; azaLeu = CC(C)CN(N[*:1])C(=O)[*:2]
Reported IC50 values for a set of compounds

Examples with their reported IC50 follow.
# compound, data value
measured = [
    ("CC(C)CN(NC(=O)[C@@H](Cc1c[nH]c2ccccc12)NC(=O)[C@@H](N)Cc1cnc[nH]1)C(=O)N[C@@H](C)C(=O)N[C@H](Cc1ccccc1)C(=O)N[C@@H](CCCCN)C(N)=O (H-H[dW][azaLeu]A[dF]K-NH2)", "25.9 µM"),
    ("CC(C)CN(NC(=O)[C@H](C)NC(=O)[C@@H](Cc1c[nH]c2ccccc12)NC(=O)[C@@H](N)Cc1cnc[nH]1)C(=O)N[C@H](Cc1ccccc1)C(=O)N[C@@H](CCCCN)C(N)=O (H-H[dW]A[azaLeu][dF]K-NH2)", "> 10 µM"),
    ("C[C@H](NC(=O)N1CCCN1C(=O)[C@@H](N)Cc1cnc[nH]1)C(=O)N[C@@H](Cc1c[nH]c2ccccc12)C(=O)N[C@H](Cc1ccccc1)C(=O)N[C@@H](CCCCN)C(N)=O", "> 10 µM"),
    ("C[C@H](NC(=O)[C@@H](Cc1ccccc1)NC(=O)N(Cc1ccccc1)NC(=O)[C@H](C)NC(=O)[C@@H](Cc1c[nH]c2ccccc12)NC(=O)[C@@H](N)Cc1cnc[nH]1)C(N)=O (H-H[dW]A[azaPhe][dF]A-NH2)", "> 10 µM"),
    ("CC(C)CN(NC(=O)[C@@H](Cc1c[nH]c2ccccc12)NC(=O)[C@@H](C)N)C(=O)N[C@@H](Cc1c[nH]c2ccccc12)C(=O)N[C@H](Cc1ccccc1)C(=O)N[C@@H](CCCCN)C(N)=O", "13.3 µM"),
    ("CC(C)CN(NC(=O)[C@@H](Cc1c[nH]c2ccccc12)NC(=O)[C@@H](N)Cc1cnc[nH]1)C(=O)N[C@@H](Cc1c[nH]c2ccccc12)C(=O)N[C@H](Cc1ccccc1)C(N)=O", "9.01 µM"),
    ("C[C@H](N)C(=O)N[C@H](Cc1c[nH]c2ccccc12)C(=O)N[C@@H](C)C(=O)NN(Cc1ccccc1)C(=O)N[C@H](Cc1ccccc1)C(=O)N[C@@H](CCCCN)C(N)=O (H-A[dW]A[azaPhe][dF]K-NH2)", "7.58 µM"),
    ("CC(C)CN(NC(=O)[C@@H](Cc1c[nH]c2ccccc12)NC(=O)[C@@H](N)Cc1cnc[nH]1)C(=O)N[C@@H](Cc1c[nH]c2ccccc12)C(=O)N[C@H](Cc1ccccc1)C(=O)N[C@@H](C)C(N)=O (H-H[dW][azaLeu]W[dF]A-NH2)", "7.59 µM"),
]

Shifting focus to the compound that follows.
-- ask Kindly indicate its recorded IC50. Item: `CC(C)CN(NC(=O)[C@H](N)Cc1c[nH]c2ccccc12)C(=O)N[C@@H](Cc1c[nH]c2ccccc12)C(N)=O`
-- reply > 10 µM

Source listed as ChEMBL document CHEMBL2163252.
